ASSAYED TARGET: Fc-fusion protein of human PSMA (hPSMA-Fc) (Homo sapiens)
Construct: purchased Acro Biosystems PSA-H5264
Sequence (Q04609 44-750 limits assumed): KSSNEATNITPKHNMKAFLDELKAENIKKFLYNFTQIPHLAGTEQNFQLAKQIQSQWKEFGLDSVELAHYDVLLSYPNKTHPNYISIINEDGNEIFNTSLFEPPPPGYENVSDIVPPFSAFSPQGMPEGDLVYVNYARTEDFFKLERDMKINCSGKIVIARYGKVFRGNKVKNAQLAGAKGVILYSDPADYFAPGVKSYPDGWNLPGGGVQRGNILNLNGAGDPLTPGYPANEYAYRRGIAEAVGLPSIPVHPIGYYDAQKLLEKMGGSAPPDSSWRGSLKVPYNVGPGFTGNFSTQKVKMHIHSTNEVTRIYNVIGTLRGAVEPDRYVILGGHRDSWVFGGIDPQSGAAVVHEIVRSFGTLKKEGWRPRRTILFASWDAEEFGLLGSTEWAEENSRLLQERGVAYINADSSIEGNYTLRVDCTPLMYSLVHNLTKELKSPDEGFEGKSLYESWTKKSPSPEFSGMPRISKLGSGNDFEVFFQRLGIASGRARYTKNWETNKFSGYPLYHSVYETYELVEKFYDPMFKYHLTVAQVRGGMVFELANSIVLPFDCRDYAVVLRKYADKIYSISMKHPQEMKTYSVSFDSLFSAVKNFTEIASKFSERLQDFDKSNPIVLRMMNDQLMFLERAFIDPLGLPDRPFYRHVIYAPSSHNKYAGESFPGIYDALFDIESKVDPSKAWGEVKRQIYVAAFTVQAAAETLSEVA
ASSAY TEXT: Surface plasmon resonance assay (Biacore T200, single cycle kinetic)
Assay type: binding
DETAILS: pKD category for PSMA SPR activity assay, hPSMA-Fc, 25° C.; read-out: pKD CAT (converted)
Numbered stars: 1 amine (or outer) side, 2 acyl side, 3 side chain; on linkers, the order of the positions; unused ones are H or OH. Bridge positions count the residues as written; N and C are the ends. Square brackets hold non-standard residues; d marks the D form. Peptide text beside a SMILES is read from it. * marks the point of attachment. DOTA = O=C(O)CN1CCN(CC(=O)O)CCN(CC(=O)*)CCN(CC(=O)O)CC1; X1 = O=C(CC1CCN([*:1])CC1)[*:2]; Tle = CC(C)(C)[C@H](N)C(=O)O; Aib = CC(C)(N)C(=O)O
PARAMETER MEASURED: Kd

COMPOUND: CC(=O)N[C@H](C(=O)NC(C)(C)C(=O)N[C@@H](Cc1ccccc1)C(=O)N[C@H]1CSSC[C@@H](C(=O)N[C@H](C(=O)N[C@H](C(=O)N2CCC(CC(=O)N[C@H](CCCCNC(=O)CN3CCN(CC(=O)O)CCN(CC(=O)O)CCN(CC(=O)O)CC3)C(N)=O)CC2)[C@@H](C)O)C(C)(C)C)NC(=O)[C@H](CC(N)=O)NC(=O)C(C)(C)NC(=O)[C@H](CCCNC(=N)N)NC(=O)[C@H](CCCCN)NC1=O)[C@@H](C)O [PSM-0428] (Ac-T[Aib]FCKR[Aib]NC[Tle]T[X1][dK](DOTA)-NH2; disulfide 4-9)
MEASURED RESULT: < 12.6 nM

----------
Collected IC50 values appear next to each entry.
ASSAYED TARGET: PSMA-expressing C4-2 cells (Homo sapiens)
Construct: PSMA-expressing C4-2 cells (ATCC, Cat. No. CRL-3314) were cultured in RPMI-1640; host or cells: C4-2 cells
Sequence (Q04609 whole entry): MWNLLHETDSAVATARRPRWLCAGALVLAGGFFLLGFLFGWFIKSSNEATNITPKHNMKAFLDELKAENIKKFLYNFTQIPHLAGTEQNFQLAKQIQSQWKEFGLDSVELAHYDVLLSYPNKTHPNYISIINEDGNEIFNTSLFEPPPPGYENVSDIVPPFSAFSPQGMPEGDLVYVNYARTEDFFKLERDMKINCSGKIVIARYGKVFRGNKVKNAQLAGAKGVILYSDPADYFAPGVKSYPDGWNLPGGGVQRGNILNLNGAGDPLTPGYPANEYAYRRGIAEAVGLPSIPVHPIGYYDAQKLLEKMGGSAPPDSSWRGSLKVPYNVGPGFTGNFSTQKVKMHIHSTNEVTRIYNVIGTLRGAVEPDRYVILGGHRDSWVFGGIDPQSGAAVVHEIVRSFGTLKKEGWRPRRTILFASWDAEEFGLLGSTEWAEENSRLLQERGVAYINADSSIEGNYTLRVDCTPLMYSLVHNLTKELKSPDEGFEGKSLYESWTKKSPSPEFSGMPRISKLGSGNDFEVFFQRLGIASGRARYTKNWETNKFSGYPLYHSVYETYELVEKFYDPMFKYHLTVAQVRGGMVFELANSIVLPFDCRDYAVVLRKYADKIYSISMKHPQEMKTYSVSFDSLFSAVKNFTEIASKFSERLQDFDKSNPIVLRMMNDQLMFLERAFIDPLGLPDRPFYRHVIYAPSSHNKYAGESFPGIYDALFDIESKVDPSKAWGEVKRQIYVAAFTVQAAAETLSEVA
ASSAY TEXT: FACS binding assay (competition with 50 nM PSM-0183)
DETAILS: FACS binding, PSMA-expressing C4-2 cells; pIC50 category; read-out: pIC50 [C4-2] CAT (converted)
Numbered stars: 1 amine (or outer) side, 2 acyl side, 3 side chain; on linkers, the order of the positions; unused ones are H or OH. Bridge positions count the residues as written; N and C are the ends. Square brackets hold non-standard residues; d marks the D form. Peptide text beside a SMILES is read from it. * marks the point of attachment. TtdsdLys(DOTA)NH2 = NC(=O)[C@@H](CCCCNC(=O)CN1CCN(CC(=O)O)CCN(CC(=O)O)CCN(CC(=O)O)CC1)NC(=O)CCC(=O)NCCCOCCOCCOCCCN*; DOTA = O=C(O)CN1CCN(CC(=O)O)CCN(CC(=O)*)CCN(CC(=O)O)CC1; X13 = C/N=C(/NC)N(C)CCC[C@H](N[*:1])C(=O)[*:2]; Phe(4-Cl) = N[C@@H](Cc1ccc(Cl)cc1)C(=O)O; Phe(4-F) = N[C@@H](Cc1ccc(F)cc1)C(=O)O; Arg(Me) = CNC(=N)NCCC[C@H](N)C(=O)O; X1 = O=C(CC1CCN([*:1])CC1)[*:2]; Lys(Me) = CNCCCC[C@H](N)C(=O)O; αMeD = C[C@](N)(CC(=O)O)C(=O)O; Tle = CC(C)(C)[C@H](N)C(=O)O; Aib = CC(C)(N)C(=O)O

MOLECULE: C/N=C(/NC)N(C)CCC[C@@H]1NC(=O)[C@H](CCCCNC)NC(=O)[C@@H](NC(=O)[C@H](Cc2ccc(Cl)cc2)NC(=O)C(C)(C)NC(=O)[C@@H](NC(=O)CC2CCN(C(=O)CN3CCN(CC(=O)O)CCN(CC(=O)O)CCN(CC(=O)O)CC3)CC2)[C@@H](C)O)CSSC[C@@H](C(=O)N[C@H](C(=O)N[C@H](C(N)=O)[C@@H](C)O)C(C)(C)C)NC(=O)[C@H](CC(N)=O)NC(=O)C(C)(C)NC1=O [PSM-0355] ({DOTA}-[X1]T[Aib][Phe(4-Cl)]C[Lys(Me)][X13][Aib]NC[Tle]T-NH2; disulfide 5-10)
ASSAYED TARGET: PSMA-expressing C4-2 cells (Homo sapiens)
IC50: 200 to 1260 nM
--
MOLECULE: CNC(=N)NCCC[C@@H]1NC(=O)[C@H](CCCCN)NC(=O)[C@@H](NC(=O)[C@H](Cc2ccc(Cl)cc2)NC(=O)C(C)(C)NC(=O)[C@@H](NC(=O)CC2CCN(C(=O)CN3CCN(CC(=O)O)CCN(CC(=O)O)CCN(CC(=O)O)CC3)CC2)[C@@H](C)O)CSSC[C@@H](C(=O)N[C@H](C(=O)N[C@H](C(N)=O)[C@@H](C)O)C(C)(C)C)NC(=O)[C@H](CC(N)=O)NC(=O)C(C)(C)NC1=O [PSM-0351] ({DOTA}-[X1]T[Aib][Phe(4-Cl)]CK[Arg(Me)][Aib]NC[Tle]T-NH2; disulfide 5-10)
ASSAYED TARGET: PSMA-expressing C4-2 cells (Homo sapiens)
IC50: < 200 nM
--
MOLECULE: C[C@@H](O)[C@H](NC(=O)CC1CCN(C(=O)CN2CCN(CC(=O)O)CCN(CC(=O)O)CCN(CC(=O)O)CC2)CC1)C(=O)NC(C)(C)C(=O)N[C@@H](Cc1ccccc1)C(=O)N[C@H]1CSSC[C@@H](C(=O)N[C@H](C(N)=O)C(C)(C)C)NC(=O)[C@H](CC(N)=O)NC(=O)C(C)(C)NC(=O)[C@H](CCCNC(=N)N)NC(=O)[C@H](CCCCN)NC1=O [PSM-0361] ({DOTA}-[X1]T[Aib]FCKR[Aib]NC[Tle]-NH2; disulfide 5-10)
ASSAYED TARGET: PSMA-expressing C4-2 cells (Homo sapiens)
IC50: < 200 nM
--
MOLECULE: C[C@@H](O)[C@H](NC(=O)[C@@H](NC(=O)[C@@H]1CSSC[C@H](NC(=O)[C@H](Cc2ccc(Cl)cc2)NC(=O)C(C)(C)NC(=O)[C@@H](NC(=O)CC2CCN(C(=O)CN3CCN(CC(=O)O)CCN(CC(=O)O)CCN(CC(=O)O)CC3)CC2)[C@@H](C)O)C(=O)N[C@@H](CCCCN)C(=O)N[C@@H](CCCNC(=N)N)C(=O)N[C@@](C)(CC(=O)O)C(=O)N[C@@H](CC(N)=O)C(=O)N1)C(C)(C)C)C(N)=O [PSM-0302] ({DOTA}-[X1]T[Aib][Phe(4-Cl)]CKR[αMeD]NC[Tle]T-NH2; disulfide 5-10)
ASSAYED TARGET: PSMA-expressing C4-2 cells (Homo sapiens)
IC50: < 200 nM
--
MOLECULE: CC(=O)N[C@H](C(=O)NC(C)(C)C(=O)N[C@@H](Cc1ccccc1)C(=O)N[C@H]1CSSC[C@@H](C(=O)N[C@H](C(=O)N[C@H](C(N)=O)[C@@H](C)O)C(C)(C)C)NC(=O)[C@H](CO)NC(=O)C(C)(C)NC(=O)[C@H](CCCNC(=N)N)NC(=O)[C@H](CCCCN)NC1=O)[C@@H](C)O [PSM-0279] (Ac-T[Aib]FCKR[Aib]SC[Tle]T-NH2; disulfide 4-9)
ASSAYED TARGET: PSMA-expressing C4-2 cells (Homo sapiens)
IC50: < 200 nM
--
MOLECULE: CC(=O)N[C@H](C(=O)NC(C)(C)C(=O)N[C@@H](Cc1ccccc1)C(=O)N[C@H]1CSSC[C@@H](C(=O)N[C@H](C(=O)N[C@H](C(=O)NCCCOCCOCCOCCCNC(=O)CCC(=O)N[C@H](CCCCNC(=O)CN2CCN(CC(=O)O)CCN(CC(=O)O)CCN(CC(=O)O)CC2)C(N)=O)[C@@H](C)O)C(C)(C)C)NC(=O)[C@H](CC(N)=O)NC(=O)C(C)(C)NC(=O)[C@H](CCCNC(=N)N)NC(=O)[C@H](CCCCN)NC1=O)[C@@H](C)O [PSM-0285] (Ac-T[Aib]FCKR[Aib]NC[Tle]T-{TtdsdLys(DOTA)NH2}; disulfide 4-9)
ASSAYED TARGET: PSMA-expressing C4-2 cells (Homo sapiens)
IC50: < 200 nM
--
MOLECULE: CC(=O)N[C@H](C(=O)NC(C)(C)C(=O)N[C@@H](Cc1ccccc1)C(=O)N[C@H]1CSSC[C@@H](C(=O)N[C@H](C(=O)N[C@H](C(=O)NCCCOCCOCCOCCCNC(=O)CCC(=O)N[C@H](CCCCNC(=O)CN2CCN(CC(=O)O)CCN(CC(=O)O)CCN(CC(=O)O)CC2)C(N)=O)[C@@H](C)O)C(C)(C)C)NC(=O)[C@H](CC(N)=O)NC(=O)C(C)(C)NC(=O)[C@H](CCC(N)=O)NC(=O)[C@H](CCCCN)NC1=O)[C@@H](C)O [PSM-0303] (Ac-T[Aib]FCKQ[Aib]NC[Tle]T-{TtdsdLys(DOTA)NH2}; disulfide 4-9)
ASSAYED TARGET: PSMA-expressing C4-2 cells (Homo sapiens)
IC50: 200 to 1260 nM
--
MOLECULE: C[C@@H](O)[C@H](NC(=O)[C@@H](NC(=O)[C@@H]1CSSC[C@H](NC(=O)[C@H](Cc2ccc(Cl)cc2)NC(=O)[C@](C)(CC(=O)O)NC(=O)[C@@H](NC(=O)CC2CCN(C(=O)CN3CCN(CC(=O)O)CCN(CC(=O)O)CCN(CC(=O)O)CC3)CC2)[C@@H](C)O)C(=O)N[C@@H](CCCCN)C(=O)N[C@@H](CCCNC(=N)N)C(=O)NC(C)(C)C(=O)N[C@@H](CC(N)=O)C(=O)N1)C(C)(C)C)C(N)=O [PSM-0346] ({DOTA}-[X1]T[αMeD][Phe(4-Cl)]CKR[Aib]NC[Tle]T-NH2; disulfide 5-10)
ASSAYED TARGET: PSMA-expressing C4-2 cells (Homo sapiens)
IC50: 200 to 1260 nM
--
MOLECULE: CC(=O)N[C@H](C(=O)NC(C)(C)C(=O)N[C@@H](Cc1ccc(F)cc1)C(=O)N[C@H]1CSSC[C@@H](C(=O)N[C@H](C(=O)N[C@H](C(N)=O)[C@@H](C)O)C(C)(C)C)NC(=O)[C@H](CC(N)=O)NC(=O)C(C)(C)NC(=O)[C@H](CCCNC(=N)N)NC(=O)[C@H](CCCCN)NC1=O)[C@@H](C)O [PSM-0294] (Ac-T[Aib][Phe(4-F)]CKR[Aib]NC[Tle]T-NH2; disulfide 4-9)
ASSAYED TARGET: PSMA-expressing C4-2 cells (Homo sapiens)
IC50: < 200 nM
